- System: ECC10 (Gastric Carcinoma)
- testDescription: combination Emax (second highest fraction inhibited in the dose matrix, 72 h); higher = more inhibition; extreme values may be limits of the assay
So I've got a bunch of compounds here, and I need their combination Emax values.
Give the figure only, with no unit attached.

Case CN(CCO)CC[C@H](CSc1ccccc1)Nc1ccc(S(=O)(=O)NC(=O)c2ccc(N3CCC([C@@H](O)c4ccccc4-c4ccc(Cl)cc4)CC3)cc2)cc1S(=O)(=O)C(F)(F)F [AZD4320] + CS(=O)(=O)CCNCc1ccc(-c2ccc3ncnc(Nc4ccc(OCc5cccc(F)c5)c(Cl)c4)c3c2)o1 [Lapatinib] (first compound max 1 µM, 7x7, partner max 10 µM) , ECC10 (Gastric Carcinoma), combination Emax recorded as 1

Summary line: Cc1cc2ncnn2cc1Nc1ncc2c(n1)n(C1CCOCC1)c(=O)n2C [AZD7648] + C[C@@H]1COCCN1C2=NC(=NC(=C2)C3(CC3)[S@](=N)(=O)C)C4=C5C=CNC5=NC=C4 [AZD6738] (first compound max 10 µM, 7x7, partner max 10 µM) , ECC10 (Gastric Carcinoma), reported combination Emax = 0.421

# Cn1cnc2c(F)c(Nc3ccc(Br)cc3Cl)c(C(=O)NOCCO)cc21 [Selumetinib] + C=CCn1c(=O)c2cnc(Nc3ccc(N4CCN(C)CC4)cc3)nc2n1-c1cccc(C(C)(C)O)n1 [AZD1775] (first compound max 10 µM, partner max 1 µM) with ECC10 (Gastric Carcinoma): combination Emax is 0.774

Observed combination Emax on ECC10 (Gastric Carcinoma), entry Cn1cnc2c(F)c(Nc3ccc(Br)cc3Cl)c(C(=O)NOCCO)cc21 [Selumetinib] + CCN(CCO)CCCOc1ccc2c(Nc3cc(CC(=O)Nc4cccc(F)c4)[nH]n3)ncnc2c1 [AZD2811] (first compound max 10 µM, 7x7, partner max 1 µM) , equals 0.841

CC1(C)CCC(CN2CCN(c3ccc(C(=O)NS(=O)(=O)c4ccc(NCC5CCOCC5)c([N+](=O)[O-])c4)c(Oc4cnc5[nH]ccc5c4)c3)CC2)=C(c2ccc(Cl)cc2)C1 [Venetoclax] + Cn1cnc2c(F)c(Nc3ccc(Br)cc3Cl)c(C(=O)NOCCO)cc21 [Selumetinib] (first compound max 1 µM, 7x7, partner max 3 µM) on ECC10 (Gastric Carcinoma) gives combination Emax = 0.937

Measured on ECC10 (Gastric Carcinoma), C=CCn1c(=O)c2cnc(Nc3ccc(N4CCN(C)CC4)cc3)nc2n1-c1cccc(C(C)(C)O)n1 [AZD1775] + C[C@@H]1COCCN1C2=NC(=NC(=C2)C3(CC3)[S@](=N)(=O)C)C4=C5C=CNC5=NC=C4 [AZD6738] (first compound max 1 µM, partner max 10 µM) has a documented combination Emax of 0.843

Param item: CCc1c2c(nc3ccc(O)cc13)-c1cc3c(c(=O)n1C2)COC(=O)[C@]3(O)CC [SN-38] + CN(C)CCCOc1ccc(-c2ccc3ncc4c(c3c2)n(C2CCOCC2)c(=O)n4C)cn1 [AZD0156] (first compound max 0.3 µM, 7x7, partner max 1 µM) ; param system: ECC10 (Gastric Carcinoma); output combination Emax: 0.945
